- System: Dirofilaria immitis microfilariae
- assay.explanation: In vitro assay 3: Dirofilaria immitis microfilariae (DIROIM L1), motility
- condition.set: 72 h, read-out: EC50 (reduction of motility), 72 h incubation
readout.kind: EC50

O=C(N[C@H]1CCOc2ccccc21)c1cnc2c(-c3cccc(Cl)c3Cl)cccc2c1N1CCOCC1 ... < 0.1 µg/mL

Record EC50 per entry; entries follow.
1. O=C(N[C@H]1CCOc2ccccc21)c1cnc2c(-c3cc(Cl)cc(C(F)(F)F)c3)cccc2c1N1CCOCC1
2. O=C(N[C@H]1CCOc2ccccc21)c1cnc2c(-c3cc(Cl)sc3Cl)cccc2c1N1CCOCC1

-- reply
1: < 0.1 µg/mL; 2: < 0.1 µg/mL

This collection of values is drawn from patent US10889573B2.
